- ASSAY SYSTEM: T1, native human ApoC3 (human, UniProt P02656 21-99)
- T1 construct: also called nhuApoC3; native huApoC3
- T1 sequence (P02656 21-99): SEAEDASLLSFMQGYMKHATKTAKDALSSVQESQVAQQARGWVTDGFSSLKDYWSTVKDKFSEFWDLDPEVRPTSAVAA
- MEASUREMENT DESCRIPTION: SPR, IgG1 over ApoC3 on CM5 chip, pH 7.4
PROPERTY: koff (s⁻¹)

{"BINDER": "5E5VH5_VLWT human IgG1 (antibody, V domains shown) VH: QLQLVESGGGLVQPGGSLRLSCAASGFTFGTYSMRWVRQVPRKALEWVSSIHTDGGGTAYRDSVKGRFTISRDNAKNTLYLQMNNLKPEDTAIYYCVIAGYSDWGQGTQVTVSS VL: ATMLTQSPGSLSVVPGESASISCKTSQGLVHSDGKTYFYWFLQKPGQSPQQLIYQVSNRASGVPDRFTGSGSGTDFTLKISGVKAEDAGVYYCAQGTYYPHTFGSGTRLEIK", "OUTPUT UNIT": "s⁻¹", "EXPERIMENTAL RESULT": "3.77e-05"}
{"BINDER": "5E5VHWT_VL8 human IgG1 (antibody, V domains shown) VH: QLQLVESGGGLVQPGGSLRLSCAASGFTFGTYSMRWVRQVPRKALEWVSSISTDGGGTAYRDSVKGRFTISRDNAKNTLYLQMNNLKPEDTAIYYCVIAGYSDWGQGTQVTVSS VL: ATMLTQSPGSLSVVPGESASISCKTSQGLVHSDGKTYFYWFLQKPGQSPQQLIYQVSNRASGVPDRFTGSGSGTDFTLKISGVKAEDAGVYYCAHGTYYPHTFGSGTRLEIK", "OUTPUT UNIT": "s⁻¹", "EXPERIMENTAL RESULT": "2.84e-05"}
{"BINDER": "5E5VH5VH12_VLWT human IgG1 (antibody, V domains shown) VH: QLQLVESGGGLVQPGGSLRLSCAASGFTFGTYSMRWVRQVPRKALEWVSSIHTDGGGTAYRDSVKGRFTISRDNAKNTLYLQMNNLKPEDTAIYYCVIHGYSDWGQGTQVTVSS VL: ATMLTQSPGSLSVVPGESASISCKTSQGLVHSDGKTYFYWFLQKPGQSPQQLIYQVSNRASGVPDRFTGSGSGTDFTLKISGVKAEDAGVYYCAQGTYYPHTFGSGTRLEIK", "OUTPUT UNIT": "s⁻¹", "EXPERIMENTAL RESULT": 0.000305}
{"BINDER": "5E5VH12_VL8 human IgG1 (antibody, V domains shown, Tested as human IgG1) VH: QLQLVESGGGLVQPGGSLRLSCAASGFTFGTYSMRWVRQVPRKALEWVSSISTDGGGTAYRDSVKGRFTISRDNAKNTLYLQMNNLKPEDTAIYYCVIHGYSDWGQGTQVTVSS VL: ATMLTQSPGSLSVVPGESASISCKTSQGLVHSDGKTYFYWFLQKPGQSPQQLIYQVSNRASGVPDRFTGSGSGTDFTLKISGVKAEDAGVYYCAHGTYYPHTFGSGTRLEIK", "OUTPUT UNIT": "s⁻¹", "EXPERIMENTAL RESULT": 0.000163}
{"BINDER": "5E5WT human IgG1 (antibody, V domains shown) VH: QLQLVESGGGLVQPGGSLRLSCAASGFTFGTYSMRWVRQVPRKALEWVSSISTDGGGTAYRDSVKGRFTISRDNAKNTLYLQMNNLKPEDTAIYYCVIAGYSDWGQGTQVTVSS VL: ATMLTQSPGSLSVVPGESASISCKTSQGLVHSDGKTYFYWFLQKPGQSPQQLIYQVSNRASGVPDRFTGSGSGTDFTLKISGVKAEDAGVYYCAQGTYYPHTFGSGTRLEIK", "OUTPUT UNIT": "s⁻¹", "EXPERIMENTAL RESULT": "1.79e-05"}
{"BINDER": "5E5VH12_VLWT human IgG1 (antibody, V domains shown) VH: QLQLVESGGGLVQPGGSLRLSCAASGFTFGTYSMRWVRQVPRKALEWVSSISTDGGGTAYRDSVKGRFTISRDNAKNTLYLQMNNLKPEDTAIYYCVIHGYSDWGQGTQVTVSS VL: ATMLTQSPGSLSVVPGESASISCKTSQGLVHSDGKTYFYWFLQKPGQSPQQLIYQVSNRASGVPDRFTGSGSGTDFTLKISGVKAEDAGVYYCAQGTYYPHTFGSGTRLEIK", "OUTPUT UNIT": "s⁻¹", "EXPERIMENTAL RESULT": "1.38e-05"}
{"BINDER": "5E5VH5_VL8 human IgG1 (antibody, V domains shown, Tested as human IgG1; the tested lot is not tied to them in words) VH: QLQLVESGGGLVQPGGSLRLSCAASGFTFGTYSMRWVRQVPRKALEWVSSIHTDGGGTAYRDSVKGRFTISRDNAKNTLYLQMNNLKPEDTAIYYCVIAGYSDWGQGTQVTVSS VL: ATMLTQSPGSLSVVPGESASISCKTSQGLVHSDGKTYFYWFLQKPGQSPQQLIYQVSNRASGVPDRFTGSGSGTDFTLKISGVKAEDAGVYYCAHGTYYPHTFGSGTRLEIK", "OUTPUT UNIT": "s⁻¹", "EXPERIMENTAL RESULT": 0.000173}
